Consider the following sequences; for each one, report its self-splicing fitness (ln).
Assay: self-splicing fitness, log relative to wild type (ln ratio); higher = more splicing; Tetrahymena group I intron in knt gene, E. coli kanamycin selection, DiMSum; sequences stand for … in CUCUCU…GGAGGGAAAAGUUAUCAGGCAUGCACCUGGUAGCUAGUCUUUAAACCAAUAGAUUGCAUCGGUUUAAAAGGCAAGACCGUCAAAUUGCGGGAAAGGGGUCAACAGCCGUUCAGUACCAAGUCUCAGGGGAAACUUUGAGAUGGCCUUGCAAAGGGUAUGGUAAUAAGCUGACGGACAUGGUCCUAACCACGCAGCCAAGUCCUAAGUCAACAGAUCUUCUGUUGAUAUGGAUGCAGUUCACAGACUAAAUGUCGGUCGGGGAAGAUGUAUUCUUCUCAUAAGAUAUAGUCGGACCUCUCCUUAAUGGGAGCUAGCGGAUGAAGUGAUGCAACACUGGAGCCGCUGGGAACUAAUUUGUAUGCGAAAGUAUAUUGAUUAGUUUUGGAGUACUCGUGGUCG;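 note: selection with 25 µg/mL kanamycin versus none on LB agar overnight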
Conditions: 30 °C

Q: Consider the sequence UCCCAGCAAUAUUACGACAU . State its measured self-splicing fitness (ln).
Result: -3.29

Q: Consider the sequence GUUUAGCAAUAUUACGUAGG . State its measured self-splicing fitness (ln).
Result: -2.77

Q: Consider the sequence CUCAAGCAAUAUUACGAUCG . State its measured self-splicing fitness (ln).
Result: -1.26

Q: Consider the sequence CGCAAGCAAUAUUACGGUAA . State its measured self-splicing fitness (ln).
Result: -3.47
